Experimental Target: T1, TNFR1 (Homo sapiens, UniProt P19438)
T1 chain: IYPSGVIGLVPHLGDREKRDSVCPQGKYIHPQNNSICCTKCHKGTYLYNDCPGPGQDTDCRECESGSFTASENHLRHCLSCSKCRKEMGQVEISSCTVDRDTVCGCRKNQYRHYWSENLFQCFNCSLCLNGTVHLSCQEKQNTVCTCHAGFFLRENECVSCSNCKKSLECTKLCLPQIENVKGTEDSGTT
Method: yeast display SC50
Recorded apparent Kd (screen), one value per entry.
Experimental Endpoint: apparent Kd (screen) (nM)

1. E44P (designed binder) MTLQELLREEALRRAEAEAFRYALELLAEKFPEQKEYLLDLAEPIESQIRSLSGVDVEDVRKFLDKEWAWVKELLAEHPAELAEVEAARAARLAELRAEVEAKVAA ... 1.16
2. A98C (designed binder) MTLQELLREEALRRAEAEAFRYALELLAEKFPEQKEYLLDLAEEIESQIRSLSGVDVEDVRKFLDKEWAWVKELLAEHPAELAEVEAARAARLAELRCEVEAKVAA ... 0.49
3. A28D (designed binder) MTLQELLREEALRRAEAEAFRYALELLDEKFPEQKEYLLDLAEEIESQIRSLSGVDVEDVRKFLDKEWAWVKELLAEHPAELAEVEAARAARLAELRAEVEAKVAA ... 18.3
4. L82G (designed binder) MTLQELLREEALRRAEAEAFRYALELLAEKFPEQKEYLLDLAEEIESQIRSLSGVDVEDVRKFLDKEWAWVKELLAEHPAEGAEVEAARAARLAELRAEVEAKVAA ... 1.54
